Reported Wheat plant response rating values are given for each entry in this list.
- System: wheat (Triticum aestivum)
- protocol_details: Test A postemergence
- Assay type: in vivo
- condition: 125 g ai/ha, postemergence; visual injury rating on 0 to 100 scale (0 no effect, 100 complete control), approx. 10 d
- From the text: […]
Format: numeric value only, no unit, no commentary.

- compound: "Cc1cccc(NC(=O)C2C(=O)NCC2c2ccc(F)c(F)c2)c1F (centres unmarked)"
  quantitative_result: 0

Ask | Any idea what Wheat plant response rating came out for CN1CC(c2cccc(OC(F)(F)C(F)F)c2)C(C(=O)Nc2ccc(F)c(F)c2F)C1=O (centres unmarked) on wheat (Triticum aestivum)?
Reply | 50

Ask | Reported Wheat plant response rating for wheat (Triticum aestivum), given O=C1NCC(c2cc(F)cc(C(F)(F)F)c2)C1C(=O)Nc1cccc(F)c1F (centres unmarked) ?
Reply | 50

Ask | API: value(readout= Wheat plant response rating, system= wheat (Triticum aestivum), query= CN1CC(c2ccc(C(F)(F)F)cc2F)C(C(=O)Nc2ccccc2F)C1=O (centres unmarked) )
Reply | 0

Ask | Form: Entry = CN1CC(c2cccc(OC(F)(F)C(F)F)c2)C(C(=O)Nc2ccccc2C(F)(F)F)C1=O (centres unmarked) | System = wheat (Triticum aestivum) | Wheat plant response rating = ____
Reply | 40

Ask | What measured Wheat plant response rating is associated with O=C1NCC(c2cccc(C#Cc3ccccc3)c2)C1C(=O)Nc1cccc(F)c1F (centres unmarked) on wheat (Triticum aestivum)?
Reply | 0

Ask | Recall the recorded Wheat plant response rating for O=C(Nc1ccccc1F)C1C(=O)N(c2ccccc2)CC1c1cccc(C(F)(F)F)c1 (centres unmarked) with wheat (Triticum aestivum) and state it.
Reply | 0

Ask | Hi! What's the reported Wheat plant response rating for CC(C)c1ccc(C2CNC(=O)C2C(=O)Nc2cccc(F)c2F)cc1 (centres unmarked) on wheat (Triticum aestivum)?
Reply | 0

* * *

- Test system: pigweed (Amaranthus retroflexus)
- protocol_details: Test A postemergence
- Assay type: in vivo
- condition: Amaranthus retroflexus, post-emergence, 240 h, 125 g ai/ha, postemergence, visual injury vs untreated controls after approx. 10 d; 0 = no effect, 100 = complete control; read-out: Pigweed plant response rating (0 to 100 scale)
measurement_name: pest or weed control at 125 g/ha (%)
Numeric answer only, unit % assumed.

Below: 8 compounds and their reported pest or weed control at 125 g/ha.
- entry_smiles: "Cc1ccc([C@H]2CCN(C)C(=O)[C@@H]2C(=O)Nc2ccc(F)c(F)c2F)cc1"
  measurement_name: "pest or weed control at 125 g/ha"
  quantitative_result: 0
- entry_smiles: "CSc1ccccc1NC(=O)[C@H]1C(=O)N(C)C[C@@H]1c1ccc(C)cc1"
  measurement_name: "pest or weed control at 125 g/ha"
  quantitative_result: 0
- entry_smiles: "Cc1nc([C@H]2CNC(=O)[C@@H]2C(=O)Nc2ccccc2F)cs1"
  measurement_name: "pest or weed control at 125 g/ha"
  quantitative_result: 0
- entry_smiles: "C=C(C)c1ccc([C@H]2CN(C)C(=O)[C@@H]2C(=O)Nc2ccc(F)c(F)c2F)cc1"
  measurement_name: "pest or weed control at 125 g/ha"
  quantitative_result: 20
- entry_smiles: "CN1C[C@H](c2ccc(C(F)F)cc2)[C@@H](C(=O)Nc2ccc(F)c(F)c2F)C1=O"
  measurement_name: "pest or weed control at 125 g/ha"
  quantitative_result: 50
- entry_smiles: "CSc1ccccc1NC(=O)[C@H]1C(=O)N(C)C[C@@H]1c1ccc(F)cc1"
  measurement_name: "pest or weed control at 125 g/ha"
  quantitative_result: 20
- entry_smiles: "CSc1ccccc1NC(=O)[C@H]1C(=O)N(C)C[C@@H]1c1ccc(OC(F)F)cc1"
  measurement_name: "pest or weed control at 125 g/ha"
  quantitative_result: 50
- entry_smiles: "COc1cc(C(F)(F)F)ccc1[C@H]1CNC(=O)[C@@H]1C(=O)Nc1ccccc1F"
  measurement_name: "pest or weed control at 125 g/ha"
  quantitative_result: 0

# evaluate next
Ask | What value of pest or weed control at 125 g/ha has been reported for the following compound? CCc1cc([C@H]2CN(C)C(=O)[C@@H]2C(=O)Nc2cccc(F)c2F)cs1
Reply | 0

Origin of measurements: patent US12077503B2
